- Tested on: MOLM-13 cells
- Test Method Notes: MOLM-13 96 Hour cell proliferation assay (Cell Titer-Glo)
- Type: cell-based
- Test Conditions: Homo sapiens
Parameter Measured: IC50

COCc1cn(-c2cncc(COc3ccc4ccc(N5CCC5)nc4c3)c2)c2ncnc(N)c12: 1 to 10 µM
Nc1ncnc2c1c(Cl)cn2-c1cncc(COc2ccc3ccc(NCC4CC4)nc3c2)c1: 1 to 10 µM

IN: Consider the molecule CCc1cc(NCCN(C)C)c2c(F)cc(OCc3cncc(-n4cc(-c5ccn(C)n5)c5c(N)ncnc54)c3)cc2n1 and give its measured IC50.
OUT: 1 to 10 µM

* * *

What IC50 was measured for each of the following?
- System: MOLM-13 cells
- Test Method Notes: MOLM-13 96 Hour cell proliferation assay (Cell Titer-Glo)
- Format: cell-based
- Test Conditions: Homo sapiens

Recorded results for 2 compounds are shown here.
CNc1ccc2ccc(OCc3cncc(-n4cc(-c5ncco5)c5c(N)ncnc54)c3)cc2n1: ≥ 10000 nM
CCNc1ccc2ccc(OCc3cncc(-n4cc([C@@H]5CCCO5)c5c(N)ncnc54)c3)cc2n1: < 1000 nM

IN: Looking for the measured IC50 of CCCc1cc(N)c2ccc(CCc3cncc(-n4cc(-c5ccn(C)n5)c5c(N)ncnc54)c3)cc2n1 , can you help?
OUT: < 1000 nM
